Numbers sourced from ChEMBL document CHEMBL4813910.

- test-method-notes: Cmax in human plasma at 37 mg/kg, po by HPLC method
- Format: ADME, organism-based
- Design: route oral, dose 37 mg/kg
metric-name: Cmax (µM)
Please reply with the bare figure in µM and do not write the unit itself.

Item under review: `O=Cc1c(O)cccc1OCc1ccc(C(=O)O)cc1` . Reported Cmax? 271

###

- test-method-notes: Tmax in human at 0.03 mg/kg, po
- Format: ADME, organism-based
- assay-conditions: in vivo
metric-name: Tmax (h)
Please reply with the bare figure in h and do not write the unit itself.

Item under review: CC(CC=O)CCCC(C)(C)O (stereo unspecified) . Reported Tmax? 2.7

###

- test-method-notes: Cmax in human erythrocytes at 37 mg/kg, po
- Assay type: ADME, organism-based, Erythrocyte
- Parameters: route oral, dose 37 mg/kg
metric-name: Cmax (µM)
Please reply with the bare figure in µM and do not write the unit itself.

Item under review: `O=Cc1c(O)cccc1OCc1ccc(C(=O)O)cc1` . Reported Cmax? 2460
